tested on: CAPAN-2 (Pancreatic Carcinoma); assay: Bliss excess, mean over the matrix (fraction); higher = more synergy;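 further: after 72 h of two-drug dosing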
Kindly supply the reported Bliss excess values for the records listed here.
Answer as a number with no unit attached.

Entry CC1(C)CCC(CN2CCN(c3ccc(C(=O)NS(=O)(=O)c4ccc(NCC5CCOCC5)c([N+](=O)[O-])c4)c(Oc4cnc5[nH]ccc5c4)c3)CC2)=C(c2ccc(Cl)cc2)C1 [Venetoclax] + CN(C)CCCOc1ccc(-c2ccc3ncc4c(c3c2)n(C2CCOCC2)c(=O)n4C)cn1 [AZD0156] (first compound max 1 µM, 7x7, partner max 1 µM) , system CAPAN-2 (Pancreatic Carcinoma): what Bliss excess was measured?;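 further: after 72 h of two-drug dosing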
-0.0191

Notebook entry, CAPAN-2 (Pancreatic Carcinoma) assay: Bliss excess of Cc1c2c(nn1C)CSCc1cc(n(C)n1)CSc1cc(c3ccccc3c1)OCCCc1c(C(=O)O)n(C)c3c-2c(Cl)ccc13 [AZD5991] + CC1(C)CCC(CN2CCN(c3ccc(C(=O)NS(=O)(=O)c4ccc(NCC5CCOCC5)c([N+](=O)[O-])c4)c(Oc4cnc5[nH]ccc5c4)c3)CC2)=C(c2ccc(Cl)cc2)C1 [Venetoclax] (first compound max 1 µM, 7x7, partner max 1 µM) = ?
-0.0292

Look up Bliss excess with CAPAN-2 (Pancreatic Carcinoma) for this molecule: CN(CCO)CC[C@H](CSc1ccccc1)Nc1ccc(S(=O)(=O)NC(=O)c2ccc(N3CCC([C@@H](O)c4ccccc4-c4ccc(Cl)cc4)CC3)cc2)cc1S(=O)(=O)C(F)(F)F [AZD4320] + C[C@@H](Nc1cc(F)cc(F)c1)c1cc(C(=O)N(C)C)cc2c(=O)cc(N3CCOCC3)oc12 [AZD8186] (first compound max 1 µM, 7x7, partner max 3 µM)
-0.0099

Checklist item: Bliss excess tested on CAPAN-2 (Pancreatic Carcinoma), entry Cc1c2c(nn1C)CSCc1cc(n(C)n1)CSc1cc(c3ccccc3c1)OCCCc1c(C(=O)O)n(C)c3c-2c(Cl)ccc13 [AZD5991] + CC(=O)O[C@H]1C(=O)[C@@]2(C)[C@H]([C@H](OC(=O)c3ccccc3)[C@]3(O)C[C@H](OC(=O)[C@H](O)[C@@H](NC(=O)c4ccccc4)c4ccccc4)C(C)=C1C3(C)C)[C@]1(OC(C)=O)CO[C@@H]1C[C@@H]2O [Paclitaxel] (first compound max 1 µM, 7x7, partner max 3 µM) , value?;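 further: after 72 h of two-drug dosing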
0.0086

Lab note: need Bliss excess for Cc1c2c(nn1C)CSCc1cc(n(C)n1)CSc1cc(c3ccccc3c1)OCCCc1c(C(=O)O)n(C)c3c-2c(Cl)ccc13 [AZD5991] + Nc1ccn([C@@H]2O[C@H](CO)[C@@H](O)C2(F)F)c(=O)n1 [Gemcitabine] (first compound max 1 µM, 7x7, partner max 0.3 µM) on CAPAN-2 (Pancreatic Carcinoma), anyone have it?
-0.035

Value wanted: Bliss excess (CAPAN-2 (Pancreatic Carcinoma)) of entry C[C@@H]1COCCN1c1cc(C2([S@](C)(=N)=O)CC2)nc(-c2ccnc3[nH]ccc23)n1 [AZD6738] + Nc1ccn([C@@H]2O[C@H](CO)[C@@H](O)C2(F)F)c(=O)n1 [Gemcitabine] (first compound max 10 µM, 7x7, partner max 0.3 µM)
0.018

// data source = the supplement of paper PMC11061612
